Biological target: Pyruvate kinase PKLR (Homo sapiens, UniProt P30613)
Sequence (P30613 whole entry): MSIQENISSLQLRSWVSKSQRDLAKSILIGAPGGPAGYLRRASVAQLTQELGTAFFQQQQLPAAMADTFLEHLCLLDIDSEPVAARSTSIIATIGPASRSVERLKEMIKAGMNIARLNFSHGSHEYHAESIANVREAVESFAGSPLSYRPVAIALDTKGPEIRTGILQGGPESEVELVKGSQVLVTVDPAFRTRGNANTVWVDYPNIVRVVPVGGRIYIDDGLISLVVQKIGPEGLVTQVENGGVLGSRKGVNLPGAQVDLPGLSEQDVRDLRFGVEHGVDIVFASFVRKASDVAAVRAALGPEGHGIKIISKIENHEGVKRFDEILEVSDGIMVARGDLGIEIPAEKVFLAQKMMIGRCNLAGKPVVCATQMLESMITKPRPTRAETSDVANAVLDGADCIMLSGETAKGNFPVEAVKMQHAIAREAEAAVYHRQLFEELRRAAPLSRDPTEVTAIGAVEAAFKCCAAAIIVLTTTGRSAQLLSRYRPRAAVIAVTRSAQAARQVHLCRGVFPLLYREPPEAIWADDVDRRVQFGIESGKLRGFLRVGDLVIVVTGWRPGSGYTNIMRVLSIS
Assay: Activation of wild type PKR (unknown origin) incubated for 60 mins in presence of ADP, PEP and NADH by Spectraax microplate reader based assay
Readout Name: AC50

Would you please look over these solved cases?
{"Smiles Input": "CC(C)CC1(O)CCN(C(=O)c2ccc(NS(=O)(=O)c3cc(F)cc4sc(N)nc34)cc2)CC1", "AC50": "< 100 nM"}
{"Smiles Input": "CC(C)CC1(O)CCN(C(=O)c2ccc(NS(=O)(=O)c3cncc4cccnc34)cc2)CC1", "AC50": "< 100 nM"}
{"Smiles Input": "CC(C)CC1(O)CCN(C(=O)c2ccc(NS(=O)(=O)c3cccc4snnc34)cc2)CC1", "AC50": "> 10000 nM"}
{"Smiles Input": "O=C(c1ccc(NS(=O)(=O)c2cccc3cccnc23)cc1)N1CCC(O)(Cc2ccccc2C(F)(F)F)CC1", "AC50": "< 100 nM"}
{"Smiles Input": "CC(C)CC1(O)CCN(C(=O)c2ccc(NS(=O)(=O)c3cc(F)cc4scnc34)cc2)CC1", "AC50": "< 100 nM"}

What does the data say about its AC50? Entry: "Cn1ccc(C2(O)CCN(C(=O)c3ccc(NS(=O)(=O)c4cccc5scnc45)cc3)CC2)n1"
> 10000 nM

What does the data say about its AC50? Entry: "O=C(c1ccc(NS(=O)(=O)c2cccc3scnc23)cc1)N1CCC(O)(c2cccc(F)c2F)CC1"
< 100 nM

What does the data say about its AC50? Entry: "O=C(c1ccc(NS(=O)(=O)c2cccc3scnc23)cc1)N1CCC(O)(CCC=C(F)F)CC1"
< 100 nM

----------
In this section we review reported AC50 values for a set of compounds.
Molecular target: Pyruvate kinase PKLR (Homo sapiens, UniProt P30613, R510Q)
Sequence (P30613 whole entry R510Q): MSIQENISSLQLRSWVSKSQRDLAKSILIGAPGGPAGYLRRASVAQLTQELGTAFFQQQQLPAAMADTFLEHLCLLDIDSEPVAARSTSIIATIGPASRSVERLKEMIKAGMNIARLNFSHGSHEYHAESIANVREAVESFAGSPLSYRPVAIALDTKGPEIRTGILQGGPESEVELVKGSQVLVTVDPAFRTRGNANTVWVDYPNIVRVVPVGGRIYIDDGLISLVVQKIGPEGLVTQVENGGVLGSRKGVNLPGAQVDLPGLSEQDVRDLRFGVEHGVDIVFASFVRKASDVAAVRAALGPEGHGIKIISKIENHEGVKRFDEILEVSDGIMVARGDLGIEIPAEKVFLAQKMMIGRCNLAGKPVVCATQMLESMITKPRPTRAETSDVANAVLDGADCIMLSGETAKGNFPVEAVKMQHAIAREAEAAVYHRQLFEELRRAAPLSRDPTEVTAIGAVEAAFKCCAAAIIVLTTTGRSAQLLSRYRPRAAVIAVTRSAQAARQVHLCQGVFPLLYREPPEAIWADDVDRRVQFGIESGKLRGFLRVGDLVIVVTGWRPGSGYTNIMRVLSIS
Test: Activation of PKR R510Q mutant (unknown origin) incubated for 60 mins in presence of ADP, PEP and NADH by Spectraax microplate reader based assay

Would you please look over these solved cases?
{"Compound": "CC(CC1(O)CCN(C(=O)c2ccc(NS(=O)(=O)c3cccc4sc(N)nc34)cc2)CC1)C(F)(F)F (stereo not given)", "AC50": "< 100 nM"}
{"Compound": "CC(C)CC1(O)CCN(C(=O)c2ccc(NS(=O)(=O)Cc3ccccn3)cc2)CC1", "AC50": "> 10000 nM"}
{"Compound": "Cc1cc(C(=O)N2CCC(O)(c3ccccc3Cl)CC2)ccc1NS(=O)(=O)c1cccc2nccnc12", "AC50": "< 100 nM"}
{"Compound": "CC(C)CC1(O)CCN(C(=O)c2ccc(NS(=O)(=O)c3cccc4c3OCC4)cc2)CC1", "AC50": "≥ 1010 nM"}

Below: the item to evaluate.
What does the data say about its AC50? Entry: "C=C(CC1(O)CCN(C(=O)c2ccc(NS(=O)(=O)c3cccc4scnc34)cc2)CC1)C(F)(F)F"
< 100 nM

----------
In this section we review reported AC50 values for a set of molecules.
Biological target: Pyruvate kinase PKLR (Homo sapiens, UniProt P30613, R532W)
Sequence (P30613 whole entry R532W): as the sequence (P30613 whole entry) above, with R532W counted along it
Assay: Activation of PKR R532W mutant (unknown origin) incubated for 60 mins in presence of ADP, PEP and NADH by Spectraax microplate reader based assay

Would you please look over these solved cases?
{"Molecule": "CC(C)CC1(O)CCN(C(=O)c2ccc(NS(=O)(=O)c3cccc4scnc34)cc2)CC1", "Endpoint Result": "< 100 nM"}
{"Molecule": "O=C(c1ccc(NS(=O)(=O)c2cccc3cccnc23)cc1)N1CCC(O)(c2ccccc2O)CC1", "Endpoint Result": "< 100 nM"}
{"Molecule": "CS(=O)(=O)CCC1(O)CCN(C(=O)c2ccc(NS(=O)(=O)c3cccc4scnc34)cc2)CC1", "Endpoint Result": "> 10000 nM"}
{"Molecule": "CC(C)CCC1(O)CCN(C(=O)c2ccc(NS(=O)(=O)c3cccc4scnc34)cc2)CC1", "Endpoint Result": "< 100 nM"}
{"Molecule": "Cc1nc2c(S(=O)(=O)Nc3ccc(C(=O)N4CCC(O)(c5ccccc5Cl)CC4)cc3)cccc2o1", "Endpoint Result": "< 100 nM"}

What does the data say about its AC50? Entry: "CC(C)CC1(O)CCN(C(=O)c2ccc(NS(=O)(=O)c3cccc4ccc(N)nc34)cc2)CC1"
< 100 nM

What does the data say about its AC50? Entry: "CC(C)CC1(C=O)CCN(C(=O)c2ccc(NS(=O)(=O)c3cccc4cccnc34)cc2)CC1"
< 100 nM

What does the data say about its AC50? Entry: "CCS(=O)(=O)CC1(O)CCN(C(=O)c2ccc(NS(=O)(=O)c3cccc4nccnc34)cc2)CC1"
≥ 1010 nM

What does the data say about its AC50? Entry: "O=C(c1ccc(NS(=O)(=O)c2cccc3scnc23)cc1)N1CCC(O)(c2cccc(F)c2F)CC1"
< 100 nM

What does the data say about its AC50? Entry: O=C(c1ccc(NS(=O)(=O)c2cccc3scnc23)cc1)N1CCC(O)(CC2CC2(F)F)CC1 (stereo not drawn)
< 100 nM

What does the data say about its AC50? Entry: "COc1cc(NS(=O)(=O)c2cccc3cccnc23)ccc1C(=O)N1CCC(O)(Cc2ccccc2)CC1"
< 100 nM

What does the data say about its AC50? Entry: "O=C(c1ccc(NS(=O)(=O)c2cccc3cccnc23)cc1)N1CCC(O)(c2cccc(C(F)(F)F)c2)CC1"
< 100 nM

What does the data say about its AC50? Entry: "O=C(c1ccc(NS(=O)(=O)c2cccc3cccnc23)cc1)N1CCC(O)(c2ccccc2)CC1"
< 100 nM

What does the data say about its AC50? Entry: "O=C(c1ccc(NS(=O)(=O)c2cccc3scnc23)cc1)N1CCC(O)(c2ccccc2C(F)F)CC1"
< 100 nM

What does the data say about its AC50? Entry: "CC(C)CC1(CO)CCN(C(=O)c2ccc(NS(=O)(=O)c3cccc4scnc34)cc2)CC1"
< 100 nM

What does the data say about its AC50? Entry: "O=C(c1ccc(NS(=O)(=O)c2cccc3cnccc23)cc1)N1CCC(O)(c2ccccc2)CC1"
> 10000 nM

What does the data say about its AC50? Entry: "O=C(c1ccc(NS(=O)(=O)c2cccc3scnc23)cc1)N1CCC(O)(CC2CCC2)CC1"
< 100 nM

What does the data say about its AC50? Entry: "COc1cc(NS(=O)(=O)c2cccc3cccnc23)ccc1C(=O)N1CCC(O)(c2ccccc2Cl)CC1"
< 100 nM

----------
Target: Pyruvate kinase PKLR (Homo sapiens, UniProt P30613, R510Q)
Experiment: Activation of PKR R510Q mutant (unknown origin) incubated for 60 mins in presence of ADP, PEP and NADH by Spectraax microplate reader based assay
Readout Name: AC50

{"Compound": "Nc1nc2c(S(=O)(=O)Nc3ccc(C(=O)N4CCC(O)(/C=C/CC(F)(F)F)CC4)cc3)cccc2s1", "System Name": "Pyruvate kinase PKLR (Homo sapiens, UniProt P30613, R510Q)", "AC50": "< 100 nM"}
{"Compound": "Cc1nscc1CC1(O)CCN(C(=O)c2ccc(NS(=O)(=O)c3cccc4nccnc34)cc2)CC1", "System Name": "Pyruvate kinase PKLR (Homo sapiens, UniProt P30613, R510Q)", "AC50": "< 100 nM"}
{"Compound": "O=C(c1ccc(NS(=O)(=O)c2cccc3cccnc23)cc1)N1CCC(O)(c2ccccc2C(F)F)CC1", "System Name": "Pyruvate kinase PKLR (Homo sapiens, UniProt P30613, R510Q)", "AC50": "< 100 nM"}
{"Compound": "CC(C)CC1(C=O)CCN(C(=O)c2ccc(NS(=O)(=O)c3cccc4cccnc34)cc2)CC1", "System Name": "Pyruvate kinase PKLR (Homo sapiens, UniProt P30613, R510Q)", "AC50": "< 100 nM"}
{"Compound": "CC(C)CC1(O)CCN(C(=O)c2ccc(NS(=O)(=O)c3cccn4ccnc34)cc2)CC1", "System Name": "Pyruvate kinase PKLR (Homo sapiens, UniProt P30613, R510Q)", "AC50": "> 10000 nM"}

What does the data say about its AC50? Entry: "CNc1nc2c(S(=O)(=O)Nc3ccc(C(=O)N4CCC(O)(c5ccccc5Cl)CC4)cc3)cccc2s1"
< 100 nM

What does the data say about its AC50? Entry: CN1CCC(CC2(O)CCN(C(=O)c3ccc(NS(=O)(=O)c4cccc5scnc45)cc3)CC2)C1=O (stereo not drawn)
> 10000 nM

What does the data say about its AC50? Entry: "Cc1ccccc1CC1(O)CCN(C(=O)c2ccc(NS(=O)(=O)c3cccc4cccnc34)cc2)CC1"
< 100 nM

----------
Target: Pyruvate kinase PKLR (Homo sapiens, UniProt P30613, R510Q)
Test: Activation of PKR R510Q mutant (unknown origin) incubated for 60 mins in presence of ADP, PEP and NADH by Spectraax microplate reader based assay
In this section we review reported AC50 values for a set of molecules.

Would you please look over these solved cases?
{"Molecule": "CC(CC1(O)CCN(C(=O)c2ccc(NS(=O)(=O)c3cccc4scnc34)cc2)CC1)C(F)(F)F (stereo not drawn)", "AC50": "< 100 nM"}
{"Molecule": "Cn1ccc(C2(O)CCN(C(=O)c3ccc(NS(=O)(=O)c4cccc5scnc45)cc3)CC2)n1", "AC50": "> 10000 nM"}

What does the data say about its AC50? Entry: "O=C(c1ccc(NS(=O)(=O)c2cccc3ncccc23)cc1)N1CCC(O)(c2ccccc2)CC1"
> 10000 nM

What does the data say about its AC50? Entry: "CC(C)(C)CC1(O)CCN(C(=O)c2ccc(NS(=O)(=O)c3cccc4nccnc34)cc2)CC1"
< 100 nM

What does the data say about its AC50? Entry: "O=C(c1ccc(NS(=O)(=O)c2ccc3nsnc3c2)cc1)N1CCC(O)(Cc2ccccc2)CC1"
≤ 1000 nM

What does the data say about its AC50? Entry: "CC(C)(C)CC1(O)CCN(C(=O)c2ccc(NS(=O)(=O)c3cccc4cccnc34)cc2)CC1"
< 100 nM

What does the data say about its AC50? Entry: "O=C(c1ccc(NS(=O)(=O)c2cccc3scnc23)cc1)N1CCC(O)(c2cn[nH]c2)CC1"
> 10000 nM

What does the data say about its AC50? Entry: "O=C(c1ccc(NS(=O)(=O)c2cccc3snnc23)cc1)N1CCC(O)(c2ccccc2Cl)CC1"
> 10000 nM

What does the data say about its AC50? Entry: "O=C(c1ccc(NS(=O)(=O)c2cccc3cccnc23)cc1)N1CCC(O)(c2cccc(F)c2F)CC1"
< 100 nM

What does the data say about its AC50? Entry: "CC(C)CC1(O)CCN(C(=O)c2ccc(NS(=O)(=O)c3cccc4nccnc34)cc2)CC1"
< 100 nM

What does the data say about its AC50? Entry: "CC(C)CC1(O)CCN(C(=O)c2ccc(NS(=O)(=O)c3cccc4c(O)ncnc34)cc2)CC1"
< 100 nM

What does the data say about its AC50? Entry: "Cc1cc(C(=O)N2CCC(O)(Cc3ccccc3)CC2)ccc1NS(=O)(=O)c1cccc2cccnc12"
< 100 nM

What does the data say about its AC50? Entry: "O=C(c1ccc(NS(=O)(=O)c2cccc3cccnc23)c(F)c1)N1CCC(O)(c2ccccc2Cl)CC1"
< 100 nM

What does the data say about its AC50? Entry: "Nc1cnc2c(S(=O)(=O)Nc3ccc(C(=O)N4CCC(O)(CCCC(F)(F)F)CC4)cc3)cccc2n1"
< 100 nM

What does the data say about its AC50? Entry: "O=C(c1ccc(NS(=O)(=O)c2cccc3cccnc23)cc1)N1CCC(C(=O)O)(c2ccccc2)CC1"
> 10000 nM

What does the data say about its AC50? Entry: "Cc1cnc2cccc(S(=O)(=O)Nc3ccc(C(=O)N4CCC(O)(CC(C)C)CC4)cc3)c2n1"
< 100 nM

What does the data say about its AC50? Entry: "O=C(c1ccc(NS(=O)(=O)c2cccc3cccnc23)cc1)N1CCC(O)(c2ccccc2Cl)CC1"
< 100 nM

What does the data say about its AC50? Entry: "CC(C)(C)CC1(O)CCN(C(=O)c2ccc(NS(=O)(=O)c3ccc(F)c4cccnc34)cc2)CC1"
< 100 nM
